target or test system: acetylcholinesterase (Electrophorus electricus)
Sequence (O42275 24-633): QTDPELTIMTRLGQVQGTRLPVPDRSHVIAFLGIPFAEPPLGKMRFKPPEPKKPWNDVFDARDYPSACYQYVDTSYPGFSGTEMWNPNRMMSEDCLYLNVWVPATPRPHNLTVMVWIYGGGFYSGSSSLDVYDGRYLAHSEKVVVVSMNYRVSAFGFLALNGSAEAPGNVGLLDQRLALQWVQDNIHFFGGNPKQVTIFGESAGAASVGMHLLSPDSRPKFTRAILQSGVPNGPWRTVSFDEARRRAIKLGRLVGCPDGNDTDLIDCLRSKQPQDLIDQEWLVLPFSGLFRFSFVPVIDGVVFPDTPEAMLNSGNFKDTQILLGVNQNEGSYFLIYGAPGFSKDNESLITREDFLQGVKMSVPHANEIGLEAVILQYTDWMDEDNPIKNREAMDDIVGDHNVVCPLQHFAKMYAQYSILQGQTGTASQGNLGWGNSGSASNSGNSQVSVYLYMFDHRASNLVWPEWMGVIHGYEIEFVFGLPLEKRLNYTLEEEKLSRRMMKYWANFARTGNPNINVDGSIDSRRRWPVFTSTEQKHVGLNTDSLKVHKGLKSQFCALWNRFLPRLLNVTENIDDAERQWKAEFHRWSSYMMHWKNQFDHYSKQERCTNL
measured metric: IC50 (µM)
The answer is to be given in µM; state only the numeric part.

Task: Jot down IC50 (acetylcholinesterase (Electrophorus electricus)) of CC1=C(/C=C/C(C)=C/C=C/C(C)=C/C=C/C=C(C)/C=C/C=C(C)/C=C/C2=C(C)C(=O)[C@@H](O)CC2(C)C)C(C)(C)C[C@H](O)C1=O [all-trans astaxanthin] .
Output: 8.64
